target: Torsin-1A-interacting protein 2 (Homo sapiens); assay: small molecules binding lysate-expressed LULL1 – cell lysate, human LULL1 lysate, 635/667 nm fluorescence, primary screen (AID 1092); conditions: small-molecule microarray, hLULL1 lysate binding, 635 nm fluorescence; higher = more signal;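 also: probe is lysate of COS7 cells overexpressing human LULL1; score merges per-feature 667 nm fluorescence with signal-to-noise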
recorded endpoint: composite z-score

{"compound": "COCCCNC(=O)[C@@H]1c2ccccc2C(=O)N(C(C)C)[C@H]1c1ccc(CO)cc1", "tested on": "Torsin-1A-interacting protein 2 (Homo sapiens)", "value observed": -0.719}
{"compound": "C=C(COC)/C(=C/C[C@H](OC(=O)c1ccncc1)c1ccc(CO)o1)c1cnc2ccccc2c1", "tested on": "Torsin-1A-interacting protein 2 (Homo sapiens)", "value observed": 1.34}
{"compound": "COc1cc(C(O)C2C=CC3C(=O)N(C)C(=O)C3N2Nc2ccccc2)cc(OC)c1OC (configuration not stated)", "tested on": "Torsin-1A-interacting protein 2 (Homo sapiens)", "value observed": 3.62}
{"compound": "[N-]=[N+]=NCc1ccccc1C[C@@]1(C(N)=O)N=C(c2ccc(OCCCO)cc2)O[C@@H]1c1ccccc1", "tested on": "Torsin-1A-interacting protein 2 (Homo sapiens)", "value observed": 3.59}
{"compound": "CC1CC/C=C\\[C@H]2OC34C=CCN(c5ccc(Cl)cc5)C(=O)[C@H]3N(C(C)CO)C(=O)[C@]4(C)C2C(=O)O1 (some centres not stated)", "tested on": "Torsin-1A-interacting protein 2 (Homo sapiens)", "value observed": -1.05}
{"compound": "C=CCNC(=O)[C@@H]1[C@H]2C(=O)O[C@H](c3ccccc3)[C@H](c3ccccc3)N2[C@H](c2ccccc2OCCO)[C@@]12C(=O)N(C(=O)OCCOC)c1ccc(C#CC3(O)CCCCCC3)cc12", "tested on": "Torsin-1A-interacting protein 2 (Homo sapiens)", "value observed": 2.86}
{"compound": "NC(=O)NCC#Cc1ccc2c(c1)[C@]1(C(=O)N2)[C@H](c2ccccc2OCCO)N2[C@H](c3ccccc3)[C@H](c3ccccc3)OC(=O)[C@H]2[C@@H]1C(=O)O", "tested on": "Torsin-1A-interacting protein 2 (Homo sapiens)", "value observed": 1.31}
{"compound": "CC(C)c1ccc(NN2C(C(O)c3ccc(F)cc3)C=CC3C(=O)N(c4ccccc4)C(=O)C32)cc1 (configuration not stated)", "tested on": "Torsin-1A-interacting protein 2 (Homo sapiens)", "value observed": 3.57}
{"compound": "Cc1ccc(F)cc1S(=O)(=O)N[C@@H]1CCN(Cc2ccc(Br)cc2)C1", "tested on": "Torsin-1A-interacting protein 2 (Homo sapiens)", "value observed": -1.04}
{"compound": "COCCCNC(=O)[C@@]1(CCC(=O)OC(C)(C)C)N=C(c2ccc(OCCCO)cc2)O[C@H]1c1ccccc1N=[N+]=[N-]", "tested on": "Torsin-1A-interacting protein 2 (Homo sapiens)", "value observed": 3.13}
{"compound": "CCOC(=O)C[C@H]1[C@H](OC(=O)c2ccc(C(=O)c3ccccc3)cc2)[C@@H](NC(=O)c2ccc3ccccc3n2)c2cc(OCCCO)ccc2N1C(=O)Cc1ccc(OC)cc1", "tested on": "Torsin-1A-interacting protein 2 (Homo sapiens)", "value observed": 1.36}
{"compound": "O=C(Cc1ccccc1)[C@H]1C2C=CCCC(c3ccccc3)=C2CN1Cc1ccccc1 (some centres not stated)", "tested on": "Torsin-1A-interacting protein 2 (Homo sapiens)", "value observed": -0.862}
{"compound": "COC(=O)c1c(CC[C@@H](CO)NC(=O)N2CCC[C@H]2Cn2cc(C3(O)CCCCC3)nn2)oc(C(C)=O)c1C(=O)OC", "tested on": "Torsin-1A-interacting protein 2 (Homo sapiens)", "value observed": 3.4}
{"compound": "CCCCC(O)C1C=CC2C(=O)N(C)C(=O)C2N1N(c1ccccc1)c1ccccc1 (configuration not stated)", "tested on": "Torsin-1A-interacting protein 2 (Homo sapiens)", "value observed": 3.1}
{"compound": "COCCOC(=O)N1C(=O)[C@@]2(c3cc(C#CC4(O)CCCCCC4)ccc31)[C@H](c1ccc(O)cc1)N1[C@H](c3ccccc3)[C@H](c3ccccc3)OC(=O)[C@H]1[C@@H]2C(=O)N1CCN(c2ncccn2)CC1", "tested on": "Torsin-1A-interacting protein 2 (Homo sapiens)", "value observed": 2.57}
{"compound": "O=C1N(Cc2ccccc2)c2ccccc2C[C@]12N=C(c1ccc(OCCCO)cc1)O[C@@H]2c1ccccc1", "tested on": "Torsin-1A-interacting protein 2 (Homo sapiens)", "value observed": 2.42}
{"compound": "O=C(O)[C@@H]1C[C@@H]2C(=O)N3CCC[C@H]3C(=O)N2[C@@H]1c1ccc(O)cc1", "tested on": "Torsin-1A-interacting protein 2 (Homo sapiens)", "value observed": 1.34}

---

experiment: blockers of DNA damage checkpoint Chk1 activation – imaging, HeLa, hydroxyurea, phospho-Chk1 nuclear intensity, primary screen (AID 1187); details: hydroxyurea-induced phospho-Chk1 immunofluorescence imaging, higher = more signal; also: test concentration not given here
Each item that follows carries a reported z-score.
recorded endpoint: z-score

{"molecule": "COc1cc2c(cc1O)C(c1cccs1)N(Cc1cc3c(cc1Br)OCO3)CC2 (centres undefined)", "recorded endpoint": "z-score", "value observed": 0.128}
{"molecule": "COc1cc2c(cc1O)C(C1CC1)N(Cc1cccc(OC(F)(F)F)c1)CC2 (centres undefined)", "recorded endpoint": "z-score", "value observed": 0.678}
{"molecule": "O=C(NCCN1CCOCC1)[C@@H]1c2ccccc2C(=O)N(Cc2ccccc2Cl)[C@H]1c1ccc(CO)cc1", "recorded endpoint": "z-score", "value observed": 0.227}
{"molecule": "CCCCC=C[C@@H](NC(=O)OCc1ccccc1Cl)c1ccccc1", "recorded endpoint": "z-score", "value observed": -0.117}
{"molecule": "COc1ccc(C#Cc2ccc3c(c2)[C@]2(C(=O)N3)[C@H](C(=O)O)[C@H]3C(=O)O[C@H](c4ccccc4)[C@H](c4ccccc4)N3[C@@H]2c2ccc(O)cc2)cc1", "recorded endpoint": "z-score", "value observed": -0.651}
{"molecule": "COCCOC(=O)N1C(=O)[C@@]2(c3cc(C#CC4=CCCCC4)ccc31)[C@H](c1ccccc1OCCO)N1[C@H](c3ccccc3)[C@H](c3ccccc3)OC(=O)[C@H]1[C@@H]2C(=O)N1CCN(c2ncccn2)CC1", "recorded endpoint": "z-score", "value observed": -0.385}
{"molecule": "O=C(Cc1ccccc1)[C@H]1C2C=CCCC(c3ccccc3)=C2CN1Cc1ccccc1 (some centres undefined)", "recorded endpoint": "z-score", "value observed": 0.213}
{"molecule": "O=C1C2C=CC(C(O)c3cccc(O)c3)N(Nc3ccc([N+](=O)[O-])cc3)C2C(=O)N1c1ccccc1 (centres undefined)", "recorded endpoint": "z-score", "value observed": -0.322}
{"molecule": "COC(=O)[C@@H]1N=C(c2ccc(OCCCO)cc2)O[C@@H]1c1ccccc1", "recorded endpoint": "z-score", "value observed": -0.301}
{"molecule": "CC(C)N1C(=O)C[C@@](C(=O)O)(c2ccc([N+](=O)[O-])cc2)[C@H]1c1ccc(CO)cc1", "recorded endpoint": "z-score", "value observed": -0.0057}
{"molecule": "CC[C@@H]1C=C(C(=O)O)[C@H](c2ccc(C#N)cc2)N1S(=O)(=O)c1ccc(C)cc1", "recorded endpoint": "z-score", "value observed": -0.0106}
{"molecule": "CN1C2C=C(CCCO)C(C3C(=O)N(C(N)=O)C(=O)C32)C1C1CC1 (centres undefined)", "recorded endpoint": "z-score", "value observed": 0.161}
{"molecule": "CCCC=C(CCC)[C@@H](NC(=O)c1cccs1)c1ccc(C(=O)OC)cc1", "recorded endpoint": "z-score", "value observed": -0.354}
{"molecule": "COC(=O)[C@@]1(Cc2ccc(OC)cc2)[C@H]2c3cc(C(=O)N(C)C)n(Cc4ccc(C)o4)c3C[C@H]2CN1C(=O)c1ccccc1", "recorded endpoint": "z-score", "value observed": 0.304}
{"molecule": "C=CC[C@@]1(C(=O)NCCCOC)N=C(c2ccc(OCCCO)cc2)O[C@@H]1c1ccccc1", "recorded endpoint": "z-score", "value observed": -0.343}
{"molecule": "O=C(NCCN1CCOCC1)[C@@H]1c2ccccc2C(=O)N(C2Cc3ccccc3C2)[C@H]1c1ccc(CO)cc1", "recorded endpoint": "z-score", "value observed": -0.411}
{"molecule": "CCCNC(=O)[C@@]1(Sc2ccc(C)cc2)CC(=O)N(C2Cc3ccccc3C2)[C@@H]1c1ccc(CO)cc1I", "recorded endpoint": "z-score", "value observed": 0.78}
{"molecule": "CCCN1C(=O)[C@@]2(Cc3ccccc31)N=C(c1ccc(OCCCO)cc1)O[C@H]2c1ccccc1", "recorded endpoint": "z-score", "value observed": 0.365}
{"molecule": "COCCOC(=O)N1C(=O)[C@@]2(c3cc(C#CC4(O)CCCCCC4)ccc31)[C@H](C(=O)N1CCc3cc(OC)c(OC)cc3C1)[C@H]1C(=O)O[C@H](c3ccccc3)[C@H](c3ccccc3)N1[C@@H]2c1ccc(OCCO)cc1", "recorded endpoint": "z-score", "value observed": -0.247}
{"molecule": "COC(=O)[C@@]1(Cc2ccc(OC)cc2)[C@H]2c3cc(C(=O)N(C)C)n(Cc4ccc(OC(F)(F)F)cc4)c3C[C@H]2CN1C(=O)c1ccccc1", "recorded endpoint": "z-score", "value observed": -0.666}
{"molecule": "COc1cc2c(cc1O)C(C1CC1)N(C)CC2 (centres undefined)", "recorded endpoint": "z-score", "value observed": 0.406}
{"molecule": "CCCCC(CC)C(O)C1C=CC2C(=O)N(c3ccccc3)C(=O)C2N1Nc1ccccc1F (centres undefined)", "recorded endpoint": "z-score", "value observed": 0.195}
{"molecule": "N[C@@H](Cc1ccccc1)C(=O)NCc1cn(Cc2ccccc2)nn1", "recorded endpoint": "z-score", "value observed": 0.0852}
{"molecule": "CCCCN1CC=CC23O[C@@H]4/C=C\\CCCOC(=O)C4[C@H]2C(=O)N(CCO)[C@@H]3C1=O (some centres undefined)", "recorded endpoint": "z-score", "value observed": 0.214}
